// data source = patent US5580869A

Test: Mortality rate in the mouse after a single oral dose of 1600 mg/kg
Settings: in vivo, single oral dose 1600 mg/kg
MEASURED_ENDPOINT: mortality (%)
Reply numerically in %, unit not repeated.

[ask] Provide measured mortality value, entry: Cc1nc2c(nc1C)N(CCN(C(C)C)C(C)C)S(=O)(=O)N=C2N
[reply] 62

* * *

Test system: rats
Assay: Diuretic and saluretic activity (urine volume and electrolyte excretion over 6 h), technique of Lipschits et al.
Assay type: in vivo
Conditions: rat, 20 mg/kg po, (N) = not statistically significant vs control, read-out: Cl excretion, treated group/control group ratio
Entries annotated with measured response vs control in vivo at 20 mg/kg
Reply numerically in %, unit not repeated.

Past entries and their recorded results:
# MOLECULE, response vs control in vivo at 20 mg/kg [%]
rows = [
    ("CCN1c2nc(-c3ccccc3)cnc2C(N)=NS1(=O)=O [1-ethyl-7-phenyl]", 136),
    ("CCCN1c2nc(C)c(C)nc2C(N)=NS1(=O)=O [6,7-dimethyl-1-propyl]", 593),
    ("CCc1nc2c(nc1C)C(NC)=NS(=O)(=O)N2CC [1,7-diethyl-4-(methylamino)-6-methyl]", 424),
    ("CCc1nc2c(nc1C)C(N)=NS(=O)(=O)N2C [7-ethyl-1,6-dimethyl]", 471),
    ("Nc1nc(N)c2nc(-c3ccccc3)c(N)nc2n1 [Triamterene, reference compound]", 237),
    ("CCCc1nc2c(nc1C)C(N)=NS(=O)(=O)N2CC [1-ethyl-6-methyl-7-propyl]", 176),
]

[ask] Provide measured response vs control in vivo at 20 mg/kg value, entry: CCc1nc2c(nc1C)N(CC)S(=O)(=O)N=C2N [1,6-diethyl-7-methyl]
[reply] 89

[ask] Provide measured response vs control in vivo at 20 mg/kg value, entry: CCCN1c2nc(CC)c(C)nc2C(N)=NS1(=O)=O [1-ethyl-6-methyl-1-propyl]
[reply] 530

[ask] Provide measured response vs control in vivo at 20 mg/kg value, entry: CCN1c2nc(C)c(-c3ccccc3)nc2C(N)=NS1(=O)=O [1-ethyl-6-phenyl-7-methyl]
[reply] 123

[ask] Provide measured response vs control in vivo at 20 mg/kg value, entry: CCc1nc2c(nc1CC)N(CC)S(=O)(=O)N=C2N [1,6,7-triethyl]
[reply] 216
